Below is a list of entries, each paired with its recorded EC50 value.
Target Under Test: human GPR119 (Homo sapiens, UniProt Q8TDV5)
Construct: expression vector for human GPR119 cDNA (Acc. No. NP_848566)
Sequence (Q8TDV5 whole entry): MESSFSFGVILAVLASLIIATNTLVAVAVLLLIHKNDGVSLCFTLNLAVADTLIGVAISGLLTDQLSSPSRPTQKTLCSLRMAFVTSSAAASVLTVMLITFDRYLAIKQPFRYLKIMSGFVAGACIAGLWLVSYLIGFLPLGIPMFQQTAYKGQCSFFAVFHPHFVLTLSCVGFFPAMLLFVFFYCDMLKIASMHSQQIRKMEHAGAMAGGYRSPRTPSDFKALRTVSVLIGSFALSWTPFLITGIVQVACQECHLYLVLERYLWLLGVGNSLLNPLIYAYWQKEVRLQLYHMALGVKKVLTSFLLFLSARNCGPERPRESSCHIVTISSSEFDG
Experiment: AlphaScreen cAMP assay, activation of GPR119 in Min-6/hGPR119 cells
Stated Conditions: MIN6 cells stably transfected with human GPR119; intracellular cAMP; 45 minutes incubation at room temperature
# answer = value followed by unit

Example cases with answers are listed next.
> print(dat)
                                   molecule  quantity.kind  endpoint.value
1  CCc1cnc(N2CCC([C@H]3Cc4cc(-c5ccc(S(C)(=O)=O)cc5)ncc4O3)CC2)nc1 (single isomer, unassigned) [Example 85]           EC50            7 nM
2  CCc1cnc(N2CCC(C3Cc4cc(-c5ccc(S(C)(=O)=O)cc5)ncc4O3)CC2)nc1 (stereo not shown) [Example 5]           EC50           12 nM
3  Cc1cnc(N2CCC([C@]3(C)Cc4cc(C5=CCN(S(C)(=O)=O)CC5)ncc4O3)CC2)cn1 (single isomer, unassigned) [Example 53]           EC50           20 nM
4  CS(=O)(=O)N1CC=C(c2cc3c(cn2)O[C@@H](C2CCN(c4nnc(C(F)(F)F)s4)CC2)C3)CC1 (single isomer, unassigned) [Example 81]           EC50           10 nM
5  CCc1cnc(N2CCC(C3Cc4cc(-c5ccc(C(=O)NCc6cocn6)cc5)ccc4O3)CC2)nc1 (stereo not shown) [Example 64]           EC50           33 nM
6  CCCc1noc(N2CCC(C3Cc4cc(-c5ccc(S(C)(=O)=O)cc5)ncc4O3)CC2)n1 (stereo not shown) [Example 7]           EC50           35 nM

API: the following record is the query input.
Item: CCc1cnc(N2CCC(C3Cc4cc(-c5ccc(C(=O)NCc6ccccn6)cc5)ccc4O3)CC2)nc1 (stereo not shown) [Example 73] | EC50: 19 nM

----------
Target Under Test: human GPR119 (Homo sapiens)
Construct: expression vector for human GPR119 cDNA (Acc. No. NP_848566)
Experiment: AlphaScreen cAMP assay, activation of GPR119 in Min-6/hGPR119 cells
Stated Conditions: MIN6 cells stably transfected with human GPR119; intracellular cAMP; 45 minutes incubation at room temperature
Quantity Kind: pEC50
Scale note: pEC50 = -log10(concentration in M).

Example cases with answers are listed next.
> print(dat)
                                   molecule            target.under.test  quantity.kind  endpoint.value
1  CC(C)c1noc(N2CCC([C@]3(C)Cc4cc(C5=CCN(S(C)(=O)=O)CC5)ncc4O3)CC2)n1 (single isomer, unassigned) [Example 42]  human GPR119 (Homo sapiens)          pEC50            7.96
2  CS(=O)(=O)N1CC=C(c2cc3c(cn2)O[C@@H](C2CCN(c4ncc(C(F)(F)F)cc4F)CC2)C3)CC1 (single isomer, unassigned) [Example 84]  human GPR119 (Homo sapiens)          pEC50            8.70
3  CC(C)c1noc(N2CCC(C3Cc4cc(-c5ccc(CS(C)(=O)=O)cc5)ncc4O3)CC2)n1 (stereo not drawn) [Example 13]  human GPR119 (Homo sapiens)          pEC50            7.55
4  CCCc1nc(N2CCC(C3Cc4cc(-c5ccc(CS(C)(=O)=O)cc5F)ncc4O3)CC2)no1 (stereo not drawn) [Example 25]  human GPR119 (Homo sapiens)          pEC50            7.21
5  CS(=O)(=O)N1CC=C(c2cc3c(cn2)O[C@@H](C2CCN(c4ncc(C5CC5)cn4)CC2)C3)CC1 (single isomer, unassigned) [Example 91]  human GPR119 (Homo sapiens)          pEC50            8.52

API: the following record is the query input.
Item: Cc1cnc(N2CCC([C@]3(C)Cc4cc(C5=CCN(S(C)(=O)=O)CC5)ncc4O3)CC2)nc1 (single isomer, unassigned) [Example 41] | pEC50: 8.22

----------
Below is a list of entries, each paired with its recorded EC50 value.
Target Under Test: human GPR119 (Homo sapiens)
Construct: expression vector for human GPR119 cDNA (Acc. No. NP_848566)
Experiment: AlphaScreen cAMP assay, activation of GPR119 in Min-6/hGPR119 cells
Stated Conditions: MIN6 cells stably transfected with human GPR119; intracellular cAMP; 45 minutes incubation at room temperature
Give just the number in nM; leave the unit off.

Example cases with answers are listed next.
> print(dat)
                                   compound  measurement.unit  endpoint.value
1  CCc1cnc(N2CCC(C3Cc4cc(-c5ccc(C(=O)N(C)C6CCCOC6)cc5)ccc4O3)CC2)nc1 (centres unmarked)                nM              47
2  CS(=O)(=O)N1CC=C(c2cc3c(cn2)O[C@@H](C2CCN(c4ncc(C(F)(F)F)cn4)CC2)C3)CC1 (single isomer, unassigned)                nM               3
3  CCc1cnc(N2CCC(C3Cc4cc(-c5ccc(C(=O)NCC6CCCO6)cc5)ccc4O3)CC2)nc1 (centres unmarked)                nM              12
4  COc1cnc(N2CCC([C@H]3Cc4cc(C5=CCN(S(C)(=O)=O)CC5)ncc4O3)CC2)nc1 (single isomer, unassigned)                nM              10
5  CC(C)c1nc(N2CCC(C3Cc4cc(-c5ccc(CS(C)(=O)=O)cc5)ncc4O3)CC2)no1 (centres unmarked)                nM              17

Item: CC(C)c1noc(N2CCC(C3Cc4cc(-c5ccc(S(C)(=O)=O)cc5)ccc4O3)CC2)n1 (centres unmarked) | EC50: 27

Item: CCc1cnc(N2CCC(C3Cc4cc(-c5ccc(C(=O)N6CCC(C)(O)C6)cc5)ccc4O3)CC2)nc1 (centres unmarked) | EC50: 60

Item: CC(C)c1noc(N2CCC(C3Cc4cc(-c5ccc(CS(C)(=O)=O)cc5F)ncc4O3)CC2)n1 (centres unmarked) | EC50: 28

Item: CC(C)(C)c1nc(N2CCC(C3Cc4cc(C5=CCN(S(C)(=O)=O)CC5)ncc4O3)CC2)no1 (centres unmarked) | EC50: 8

Item: CCc1cnc(N2CCC([C@]3(C)Cc4cc(-c5ccc(S(C)(=O)=O)cc5)ncc4O3)CC2)nc1 (single isomer, unassigned) | EC50: 22

Item: CCCc1nc(N2CCC(C3Cc4cc(C5=CCN(S(C)(=O)=O)CC5)ncc4O3)CC2)no1 (centres unmarked) [Example 23] | EC50: 7

Item: C[C@@]1(C2CCN(c3ncc(C(F)(F)F)cc3F)CC2)Cc2cc(C3=CCN(S(C)(=O)=O)CC3)ncc2O1 (single isomer, unassigned) | EC50: 2

Item: CCc1cnc(N2CCC([C@H]3Cc4cc(C5=CCN(S(C)(=O)=O)CC5)ncc4O3)CC2)nc1 (single isomer, unassigned) | EC50: 3

Item: CS(=O)(=O)N1CC=C(c2cc3c(cn2)O[C@@H](C2CCN(c4ncc(Cl)cn4)CC2)C3)CC1 (single isomer, unassigned) | EC50: 3

----------
Target Under Test: human GPR119 (Homo sapiens, UniProt Q8TDV5)
Construct: expression vector for human GPR119 cDNA (Acc. No. NP_848566)
Experiment: AlphaScreen cAMP assay, activation of GPR119 in Min-6/hGPR119 cells
Stated Conditions: MIN6 cells stably transfected with human GPR119; intracellular cAMP; 45 minutes incubation at room temperature
Quantity Kind: EC50
# answer = value followed by unit

> print(dat)
                                   compound  endpoint.value
1  CCc1cnc(N2CCC(C3Cc4cc(-c5ccc(C(=O)N6CCC(OC)CC6)cc5)ccc4O3)CC2)nc1 (stereo not shown) [Example 69]           48 nM
2  CCc1cnc(N2CCC(C3Cc4cc(-c5ccc(C(=O)NCCC(C)(C)O)cc5)ccc4O3)CC2)nc1 (stereo not shown) [Example 75]           81 nM
3  CC(C)c1noc(N2CCC([C@@H]3Cc4cc(C5=CCN(S(C)(=O)=O)CC5)ncc4O3)CC2)n1 (single isomer, unassigned) [Example 55]           16 nM

API: the following record is the query input.
Item CS(=O)(=O)c1ccc(-c2cc3c(cn2)O[C@@H](C2CCN(c4ncc(Cl)cn4)CC2)C3)cc1 (single isomer, unassigned) [Example 87] ; assay system human GPR119 (Homo sapiens, UniProt Q8TDV5); EC50 reported as 13 nM
